- run description: Half life in C57BL/6 mouse at 100 mg/kg, ip at pH 7.4 measured after 24 hrs
- Format: ADME, organism-based
- condition context: in vivo
property name: half-life (min)
API: value field is a number in min; no unit string.

Qu. What value of measured half-life is listed for `C#CCN(C)C(=O)C1=C2C(=C(c3ccccc3)C1=O)c1cccc3cccc2c13` ?
Ans. 1.9

* * *

- run description: Half life in rat at 0.1 mg/kg, IG at pH 7.4 measured for 24 hrs
- Assay type: ADME, organism-based
- condition context: in vivo, po
property name: half-life (min)
API: value field is a number in min; no unit string.

Qu. What value of measured half-life is listed for `C#CC(C)(C)NC(=O)C1=C2C(=C(c3ccccc3)C1=O)c1cccc3cccc2c13` ?
Ans. 24.1

* * *

- run description: Half life in mouse at 15 mg/kg, ip at pH 7.4 measured at 24 to 72 hrs
- Assay type: ADME, organism-based
- condition context: in vivo, time 24-72 hrs
property name: half-life (h)
API: value field is a number in h; no unit string.

Qu. What value of measured half-life is listed for `C#CCCN(C(=O)C1=C2C(=C(c3ccccc3)C1=O)c1cccc3cccc2c13)C(C)C` ?
Ans. 1.2

The reported numbers originate from ChEMBL document CHEMBL5230147.
